Target: recombinant human GST-MDM2 (human), Q00987
Sequence (Q00987 whole entry): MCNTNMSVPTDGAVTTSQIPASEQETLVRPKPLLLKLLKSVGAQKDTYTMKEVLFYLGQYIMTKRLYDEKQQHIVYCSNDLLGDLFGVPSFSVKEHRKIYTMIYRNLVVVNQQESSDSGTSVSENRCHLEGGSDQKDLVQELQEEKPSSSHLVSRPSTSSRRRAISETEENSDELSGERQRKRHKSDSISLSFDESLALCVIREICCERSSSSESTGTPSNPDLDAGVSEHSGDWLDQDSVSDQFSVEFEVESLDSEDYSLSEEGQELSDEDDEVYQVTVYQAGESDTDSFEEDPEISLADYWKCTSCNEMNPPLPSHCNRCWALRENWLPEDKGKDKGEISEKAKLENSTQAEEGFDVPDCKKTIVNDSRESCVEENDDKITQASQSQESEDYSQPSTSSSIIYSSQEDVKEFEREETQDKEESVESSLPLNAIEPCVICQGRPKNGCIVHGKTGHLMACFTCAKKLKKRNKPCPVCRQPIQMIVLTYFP
Assay: fluorescence polarisation
pKd: −log10 of the molar value.
PROPERTY MEASURED: pKd

[
  {
    "BINDER": "GSVSHHHHHHGGHHHHKDWWPLAFEALLRGEV ((EG)3 spacer between hsLMWP and D-lysine; D-lysine at 17 carrying Cy5-(EG)3 on its side chain; dwwplafeallr (residues 18-29) are D-amino acids; citrulline at 33; (EG)3 spacer between Cit and Pra; propargylglycine (Pra) at 34, joined to the azidolysine of cC9 by CuAAC; C-terminal amide | N-terminal acetyl; azidolysine at 1 (joined to Pra of the other chain by CuAAC); D-homocysteine at 5 in a …) [Cy5-hsLMWP-PMIγ-cC9]",
    "PROPERTY MEASURED": "pKd",
    "READING": 7.05
  }
]
